Target: DRB1*0301 (Homo sapiens, UniProt P01903+P01911, A100K/A102G/A103R/A169T/F55Y/I96L/K41T/L162R/M171V/P40S/Q125H/Q178H/Q39Y/R42S/S66N/T106N/T262R/W38E/Y61H)
Sequence (P01903 26-254, other chains not shown): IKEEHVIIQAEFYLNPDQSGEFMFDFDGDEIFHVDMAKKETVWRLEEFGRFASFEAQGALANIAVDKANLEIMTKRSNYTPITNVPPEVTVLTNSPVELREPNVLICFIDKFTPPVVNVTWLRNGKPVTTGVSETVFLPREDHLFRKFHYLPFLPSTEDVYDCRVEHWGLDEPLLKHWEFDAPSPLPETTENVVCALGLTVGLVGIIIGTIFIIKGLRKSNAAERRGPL
Assay: biochemical
pIC50: −log10 of the molar value.
Listed compounds paired with reported pIC50
READOUT TYPE: pIC50

[[record]]
compound = "CC[C@H](C)[C@H](NC(=O)[C@H](CCC(=O)O)NC(=O)[C@H](CCC(N)=O)NC(=O)[C@H](CCC(=O)O)NC(=O)[C@@H](NC(=O)[C@H](CCC(=O)O)NC(=O)[C@H](CC(C)C)NC(=O)[C@H](CC(C)C)NC(=O)[C@H](CC(C)C)NC(=O)[C@@H](N)CCC(N)=O)C(C)C)C(=O)N[C@@H](CCCNC(=N)N)C(=O)N[C@H](C(=O)N[C@@H](Cc1ccccc1)C(=O)N[C@@H](CO)C(=O)N[C@@H](Cc1ccccc1)C(=O)O)[C@@H](C)O [Flu.NS2.180]"
observed_result = 6.10

[[record]]
compound = "CSCC[C@H](NC(=O)[C@H](CO)NC(=O)[C@H](CCCCN)NC(=O)[C@H](C)N)C(=O)N[C@@H](CCC(=O)O)C(=O)N[C@@H](Cc1ccc(O)cc1)C(=O)N[C@@H](CC(=O)O)C(=O)N[C@@H](C)C(=O)N[C@H](C(=O)N[C@@H](C)C(=O)N[C@H](C(=O)N[C@H](C(=O)N[C@@H](Cc1c[nH]cn1)C(=O)N[C@@H](CO)C(=O)N[C@@H](Cc1c[nH]c2ccccc12)C(=O)O)[C@@H](C)O)[C@@H](C)O)C(C)C [Flu.PB1.655]"
observed_result = 6.04

[[record]]
compound = "CC[C@H](C)[C@H](NC(=O)CNC(=O)[C@H](CCCNC(=N)N)NC(=O)[C@@H](N)CCC(N)=O)C(=O)N[C@@H](CC(C)C)C(=O)N[C@@H](CCC(=O)O)C(=O)N[C@@H](CC(=O)O)C(=O)N[C@@H](CCC(=O)O)C(=O)N[C@@H](CCC(N)=O)C(=O)N[C@@H](CCSC)C(=O)N[C@@H](Cc1ccc(O)cc1)C(=O)N[C@@H](CCC(N)=O)C(=O)N[C@@H](CCCCN)C(=O)N[C@@H](CS)C(=O)N[C@@H](CS)C(=O)O [Flu.PB1.682]"
observed_result = 7.47

